Assay: Oxygen radical absorbance capacity assay (ORAC-FL)
Settings: ORAC-FL, Trolox equivalents
Procedure: The antioxidant activity of KTs was determined using the ORAC-FL method described by Dávalos et al.[30] using fluorescein as a fluorescent probe with minor modification. Briefly, fluorescein and antioxidant were incubated in a black 96-well microplate (Nunc) for 15 min at 37 °C. The 2,2’-azobis(amidinopropane) dihydrochloride (AAPH) was then added quickly using the built-in injector of Varioskan Flash plate reader (Thermo Scientific). […]
Answer each item with its documented ORAC.
Numbers only, in TE.

# COMPOUND, U, ORAC
measured = [
    ("Nc1c2c(nc3c1C(c1cccc(Br)c1)c1oc(CO)cc(=O)c1O3)CCCC2 (centres unmarked)", "TE", 2.61),
    ("Nc1c2c(nc3c1C(c1ccccc1Cl)c1oc(CO)cc(=O)c1O3)CCCC2 (centres unmarked)", "TE", 4.84),
    ("Nc1c2c(nc3c1C(c1cccc(Cl)c1)c1oc(CO)cc(=O)c1O3)CCCC2 (centres unmarked)", "TE", 4.67),
    ("COc1cccc(C2c3oc(CO)cc(=O)c3Oc3nc4c(c(N)c32)CCCC4)c1 (centres unmarked)", "TE", 4.79),
]

// moving on: another record for ORAC
For record Nc1c2c(nc3c1C(c1ccc(F)cc1)c1oc(CO)cc(=O)c1O3)CCCC2 (centres unmarked) the listed ORAC is 4.69
